test: Cytotoxic activity; format: cell-based; details: human, KB-3-1 cells (cervix carcinoma)
endpoint: IC50 at 5 days (µg/mL)
The answer is to be given in µg/mL; state only the numeric part.

[Q] State the recorded IC50 at 5 days for this entry: CC[C@H](C)[C@@H]1NC(=O)[C@@H](N)Cc2ccc(OC)c(c2)-c2cc3cc(c2O)Oc2ccc(cc2)C[C@@H](C(=O)O)NC(=O)[C@H](C3)NC1=O
[A] 74.8

Origin of measurements: paper doi:10.1101/2020.05.25.114512v1
